# System: HaCat
# Procedure summary: Cytotoxic Profiling of Annotated Libraries Using Quantitative High-Throughput Screening (AID 1296008); also: nearly all actives have a fitted effect of over 60% in size
# Setup conditions: Five cell lines viability, CellTiter-Glo ATP luminescence, 48-72 h
Results filed as inconclusive are left out. Active and inactive are the calls of the source. Calls follow the shape of the dose curve; as a rule, active = well fitted inhibition curve with a large enough effect; inconclusive = small, poorly fitted or top-dose-only effect; inactive = flat fitted curve, though single readings scatter. *1 amine or outer side, *2 acyl side, *3 side chain or, on linkers, in order; H or OH if unused. Where a SMILES comes first, the peptide text is derived from it. Bridges are numbered along the chain shown (N, C = ends). [ ]: non-standard residue; d: D form. The star is where a group is joined. ξ: configuration not given here. ξhTyr(3S-OH,4S-OH,3'-OSO3H) = NC(C(=O)O)[C@H](O)[C@@H](O)c1ccc(O)c(OS(=O)(=O)O)c1; Orn(4R-OH,5R-OH) = O=C([C@H](C[C@@H](O)[C@@H](O)N[*:3])N[*:1])[*:2]; X2 = CCCCCOc1ccc(-c2cc(-c3ccc(C(=O)*)cc3)no2)cc1; X3 = C[C@H]1CN([*:1])C(C(=O)[*:2])[C@H]1O; ξGln(3R-OH) = NC(=O)C[C@@H](O)C(N)C(=O)O; ξPro(4R-OH) = O=C(O)C1C[C@@H](O)CN1; ξThr(3R) = C[C@@H](O)C(N)C(=O)O
Assay metric: outcome

Check out these entries, answers already filled in.
Compound: CC1=C(CO)C2(C)CCCC(C)(C)C2C(O)C1O (stereo unspecified)
outcome: inactive

Compound: CC(C)(O)c1ccc2c(c1)C(=O)C[C@H]1[C@](C)(C(=O)O)CCC[C@]21C
outcome: inactive

Compound: C[C@@H]1C[C@@H](O)[C@@]23CO[C@]2(CO)C[C@@H](O)CC3[C@@]12CC(c1ccoc1)OC2=O (stereo partly specified)
outcome: inactive

Compound: C=C1CCC2C(C)(C)CC(O)CC2(C)C1CCC(C)CC(=O)O (stereo unspecified)
outcome: inactive

Compound: CCCCCOc1ccc(-c2cc(-c3ccc(C(=O)N[C@H]4C[C@@H](O)[C@@H](O)NC(=O)C5[C@@H](O)[C@@H](C)CN5C(=O)C([C@H](O)CC(N)=O)NC(=O)C([C@H](O)[C@@H](O)c5ccc(O)c(OS(=O)(=O)O)c5)NC(=O)C5C[C@@H](O)CN5C(=O)C([C@@H](C)O)NC4=O)cc3)no2)cc1 (stereo partly drawn) (X2-[Orn(4R-OH,5R-OH)][ξThr(3R)][ξPro(4R-OH)][ξhTyr(3S-OH,4S-OH,3'-OSO3H)][ξGln(3R-OH)][X3]; lactam 1-C)
outcome: inactive

Alright, here's another compound for you.
Please supply the value of reported outcome for the item CC(C)N(CCCNC(=O)Nc1ccc(C(C)(C)C)cc1)C[C@H]1O[C@@H](n2ccc3c(N)ncnc32)[C@H](O)[C@@H]1O inactive

----------
# Test system: HaCat
# Procedure summary: Cytotoxic Profiling of Annotated Libraries Using Quantitative High-Throughput Screening (AID 1296008); also: nearly all actives have a fitted effect of over 60% in size; as to max response: % is scaled to controls: 0 for no effect and ±100 for the full control effect
# Setup conditions: Five cell lines viability, CellTiter-Glo ATP luminescence, 48-72 h; stronger effect = lower value
Inconclusive results are not listed. The source made the active and inactive calls. Calls follow the shape of the dose curve; as a rule, active = well fitted inhibition curve with a large enough effect; inconclusive = small, poorly fitted or top-dose-only effect; inactive = flat fitted curve, though single readings scatter.
Assay metric: max response

Previously resolved entries follow.
Compound: COc1cc(/C=C/C(=O)O[C@H]2[C@H](O)[C@@H](CO)O[C@@]2(CO)O[C@H]2O[C@H](CO)[C@@H](O)[C@H](O)[C@H]2O)cc(OC)c1O
Assay metric: max response
Result: -10.1% (inactive)
//
Compound: C=C1C(OC(C)=O)CCC2(C)CC3(O)OC(=O)C(C)=C3CC12 (configuration not stated)
Assay metric: max response
Result: -1.9% (inactive)
//
Compound: CC1=COC(OC2OC(CO)C(O)C(O)C2O)C2C(CO)CC(OC(=O)/C=C/c3ccc(O)cc3)C12 (configuration not stated)
Assay metric: max response
Result: 1.84% (inactive)
//
Compound: CC1(C)CC[C@]2(C(=O)O)CC[C@]3(C)C(=CCC4[C@@]5(C)CC[C@H](O[C@H]6O[C@H](C(=O)O)[C@@H](O)[C@H](O[C@@H]7O[C@H](CO)[C@H](O)[C@H](O)[C@H]7O)[C@H]6O)C(C)(C)C5CC[C@]43C)[C@@H]2C1 (some centres not stated)
Assay metric: max response
Result: 3.39% (inactive)
//
Compound: CC1=C2CC(=O)C(C)CC/C=C(\C)CC2(O)OC1=O (configuration not stated)
Assay metric: max response
Result: 2.42% (inactive)
//
Compound: COc1cc(C(C)=O)ccc1O[C@@H]1O[C@H](CO[C@@H]2OC[C@@H](O)[C@H](O)[C@H]2O)[C@@H](O)[C@H](O)[C@H]1O
Assay metric: max response
Result: -2.37% (inactive)

Moving on to another compound below.
Given the compound COC(=O)C1=COC(O[C@@H]2O[C@H](CO)[C@@H](O)[C@H](O)[C@H]2O)C2C(C)C(=O)CC12 (some centres not stated) , write its reported max response. -11.3% (inactive)

----------
# Procedure summary: Primary qHTS for inhibitors of nuclear receptor binding SET domain protein 2 (NSD2) in an RCH-ACV wild type WT cells (2C) (AID 1645877); also: potency is read from the fitted curve at half-maximal effect; nearly all actives have a fitted effect of over 70% in size
# Setup conditions: RCH-ACV (leukaemia line) NSD2 WT (2C) viability, CellTiter-Glo, 72 h; series mostly up to 44.9 µM
Inconclusive results are not listed. Calls of active or inactive are those of the source. Calls come from the whole dose curve; as a rule, active = well fitted inhibition curve with a large enough effect; inconclusive = small, poorly fitted or top-dose-only effect; inactive = no such curve, though single readings can be large or run the other way.
Catalogue of molecules with associated Potency

Provide only the value of recorded Potency for CC(=O)OCC1OC(OC2COC(OC3COC(OC4C(OC5C(CO)OC(OC6CCC7(C)C(CCC8(C)C7CC=C7C9CC(C)(C)CCC9(C(=O)OC9OC(CO)C(O)C(O)C9OC9OCC(OC%10OCC(O)(CO)C%10O)C(O)C9O)C(O)CC78C)C6(C)C)C(O)C5O)OCC(O)C4O)C(O)C3O)C(O)C2O)C(OC(=O)/C=C/c2ccccc2)C(O)C1OC(C)=O (stereo not given) 1.99 µM (active)

Supply measured Potency of FC(F)(F)c1nnc2c(Sc3ccccc3)nc3ccc(Cl)cc3n12 in your reply. 3.65 µM (active)

Supply Potency value. Item: O=c1[nH]ccc2nc(-c3ccc(CN4CCC(c5nc(-c6ccccn6)n[nH]5)CC4)cc3)c(-c3ccccc3)cc12 0.0817 µM (active)

Tell us which Potency value is on record for COc1ccc(CCc2nc3cc(-c4c(C)noc4C)ccc3n2C[C@H](C)N2CCOCC2)cc1Cl 2.58 µM (active)

State its Potency for this molecule: Nc1ncnc2c1c(COc1cccc(Cl)c1)nn2C1CCOCC1 16.6 µM (active)

----------
# System: HeLa
# Procedure summary: Primary qHTS to identify gynecologic anti-cancer compounds using libraries of approved drugs and bioactive compounds (AID 1345084); also: % is scaled to controls: 0 for no effect and ±100 for the full control effect; nearly all actives have a fitted effect of over 55% in size
# Setup conditions: Gynecologic cancer cell panel viability, ATPlite luminescence, 48 h; series mostly up to 57.5 µM
Results filed as inconclusive are left out. Active and inactive are the calls of the source. Calls follow the shape of the dose curve; as a rule, active = well fitted cell-killing curve with a large enough effect; inconclusive = small, poorly fitted or top-dose-only effect, or effect the other way; inactive = flat fitted curve, though single readings scatter.
Assay metric: activity change, negative = cytotoxicity

Use these answered entries as a reference point.
Compound: C=C(CC/C=C(\C)C(=O)O)C1(O)CC=C(C)CC1 (stereo unspecified)
activity change, negative = cytotoxicity: inactive
--
Compound: C[C@@H]1O[C@@H](O[C@H]2[C@H](O)[C@@H](O)[C@H](OC[C@H]3O[C@@H](OC(=O)[C@]45CCC(C)(C)C[C@H]4C4=CCC6[C@@]7(C)C[C@@H](O)[C@H](O)[C@@](C)(CO)C7[C@H](O)C[C@@]6(C)[C@]4(C)CC5)[C@H](O)[C@@H](O)[C@@H]3O)O[C@@H]2CO)[C@H](O)[C@H](O)[C@H]1O (stereo partly specified)
activity change, negative = cytotoxicity: 13.5% [at 11.6 µM] (inactive)
--
Compound: CC(=O)O[C@@H]1[C@H](OC(C)=O)C[C@@]2(C)C(CC[C@@H](C)[C@]23Cc2c(O)cc4c(c2O3)CN([C@@H](CCC(=O)O)C(=O)O)C4=O)C1(C)C (stereo partly specified)
activity change, negative = cytotoxicity: inactive
--
Compound: CCOc1ccc(-c2cc(NC(=O)c3c(F)cccc3F)c(C(=O)O)s2)cc1
activity change, negative = cytotoxicity: inactive
--
Compound: C[C@@H](CC[C@@H]1[C@@]2(C)CCCC(C)(C)C2CC[C@@]1(C)O)CC(=O)O (stereo partly specified)
activity change, negative = cytotoxicity: inactive

Next, consider the following compound.
Determine its reported activity change, negative = cytotoxicity: CC(C)=CCC[C@](C)(O[C@@H]1O[C@H](CO[C@@H]2OC[C@H](O)[C@H](O)[C@H]2O)[C@@H](O)[C@H](O)[C@H]1O)[C@H]1CC[C@]2(C)[C@@H]1[C@H](O)C[C@@H]1[C@@]3(C)CC[C@H](O[C@@H]4O[C@H](CO)[C@@H](O)[C@H](O)[C@H]4O[C@@H]4O[C@H](CO)[C@@H](O)[C@H](O)[C@H]4O)C(C)(C)[C@@H]3CC[C@]12C inactive

----------
# System name: Cytochrome P450 2D6 (Homo sapiens) (UniProt P10635)
# Sequence (P10635 whole entry, looked up): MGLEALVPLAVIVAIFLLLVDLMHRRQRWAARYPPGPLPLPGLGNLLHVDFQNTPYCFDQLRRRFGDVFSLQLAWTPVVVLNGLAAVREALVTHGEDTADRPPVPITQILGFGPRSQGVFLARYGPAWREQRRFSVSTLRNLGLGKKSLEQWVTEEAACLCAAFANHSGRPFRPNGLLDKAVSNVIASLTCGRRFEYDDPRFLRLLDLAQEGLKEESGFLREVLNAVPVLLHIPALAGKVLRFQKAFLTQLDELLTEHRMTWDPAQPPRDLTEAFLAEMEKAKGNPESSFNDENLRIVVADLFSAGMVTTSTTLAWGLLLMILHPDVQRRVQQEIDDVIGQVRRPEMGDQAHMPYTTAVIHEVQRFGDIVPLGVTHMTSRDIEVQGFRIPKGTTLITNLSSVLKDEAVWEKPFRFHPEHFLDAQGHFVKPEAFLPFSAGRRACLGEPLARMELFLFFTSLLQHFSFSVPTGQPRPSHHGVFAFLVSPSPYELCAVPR
# Procedure summary: Cytochrome P450 family 2 subfamily D member 6 (CYP2D6) small molecule antagonists: luciferase biochemical (cell-free) qHTS assay (AID 1645840); also: nearly all actives have a fitted effect of over 55% in size; also: potency is read from the fitted curve at half-maximal effect
# Setup conditions: P450-Glo CYP2D6 enzyme, luciferin luminescence, 1 h; series mostly up to 57.4 µM
Inconclusive results are not listed. The source made the active and inactive calls. Calls follow the shape of the dose curve; as a rule, active = well fitted inhibition curve with a large enough effect in the repeat runs; inconclusive = weak or mixed curves; inactive = flat fitted curve, though single readings scatter.
Assay metric: Potency

Known Potency results, listed for orientation:
Molecule: COc1cccc(OC)c1-c1cc(C(=O)N[C@@H](CC(C)C)C(=O)O)nn1-c1ccnc2cc(Cl)ccc12
Potency: 23.9 µM (active)
//
Molecule: FC(F)(F)Oc1ccc(-c2ccc3nnc(C(F)(F)F)n3c2)cc1
Potency: inactive
//
Molecule: CCCCNc1nc(N)c2[nH]c(=O)n(Cc3ccc(OCCN(C)C)nc3)c2n1
Potency: inactive
//
Molecule: CC1(C)CC=C(C#Cc2ccccc2)c2cc(/C=C/c3ccc(C(=O)O)cc3)ccc21
Potency: inactive
//
Molecule: O=C(Nc1ccccc1)Nc1ccc(-c2ccc(C(=O)C3CCCC3C(=O)O)cc2)cc1 (stereo unspecified)
Potency: inactive

Read off the recorded Potency for CCCNCCOc1ccc(NC(=O)c2c[nH]c3c2C(=O)CCC3)cc1F inactive

This collection of values is drawn from PubChem BioAssay (NCATS).
